target: T1, monomeric human CSF1R ectodomain protein (human, UniProt P07333 20-517); assay: SPR Biacore, IgG captured, monomeric CSF1R analyte
T1 construct: also called biotinylated monomeric human CSF1R
measurement.type: koff (s⁻¹)

- 29B07 (antibody, human IgG4, V domains shown, Library-derived clone, tested as human IgG4(S228P)/Ckappa IgG; framework residue limits counted on the grafts) VH: QVQLVQSGAEVKKPGSSVKVSCKASGYTFTSYYIIWVRQAPGQGLEWMGDINPYNGGATYAQKFQGRVTITADESTSTAYMELSSLRSEDTAVYYCAREPPYFSNLYVMDYWGQGTLVTVSS VL: EIVLTQSPATLSLSPGERATLSCRASQSVEYEGDNYLNWYQQKPGQAPRLLIYAASNRATGIPARFSGSGSGTDFTLTISSLEPEDFAVYYCQLSNQDLLTFGGGTKVEIK: 0.00051

Where do these numbers come from? They come from patent US20210301026A1.
